Test system: RSV A2 strain
assay method text: RSV A2 induced CPE in HEp2 cells
Type: cell-based
reported conditions: human respiratory syncytial virus, HEp-2, at 0.01 μg/mL
measurement label: inhibition at 0.01 µg/mL (%)
One number for each entry, in %.

Some solved cases for reference:
[
  {
    "molecule": "Cc1ccc(C(=O)Nc2ccc(C(=O)N3CCc4cc(C(=O)Nc5c(F)cccc5F)sc4-c4sccc43)cc2)c(N2CC3(CCOCC3)C2)n1 [Example 21]",
    "measurement unit": "%",
    "inhibition at 0.01 µg/mL": 91
  },
  {
    "molecule": "Cc1cnc(N2CCC3(CCOCC3)CC2)c(C(=O)Nc2ccc(C(=O)N3CCc4cc(C(=O)Nc5c(F)cccc5F)sc4-c4sccc43)cc2)c1 [Example 34]",
    "measurement unit": "%",
    "inhibition at 0.01 µg/mL": 100
  }
]

Now look at this entry.
## Task Tell me measured inhibition at 0.01 µg/mL for Cc1cnc(N2CC3(CCOCC3)C2)c(C(=O)Nc2ccc(C(=O)N3CCc4cc(C(=O)Nc5c(F)cccc5F)sc4-c4sccc43)c(F)c2)c1 [Example 18] please.
## Result 100

---

Please go through the items and note down their CC50 at 5 days.
assay method text: Cell viability: resazurin assay
Type: cell-based
reported conditions: human, HEp2 cells

Some solved cases for reference:
[
  {
    "molecule": "Cc1cnc(N2CC3(CCOCC3)C2)c(C(=O)Nc2ccc(C(=O)N3CCc4cc(C(=O)Nc5c(C)cccc5F)sc4-c4sccc43)cc2)c1",
    "CC50 at 5 days": "> 13.9 µM"
  },
  {
    "molecule": "O=C(Nc1c(F)cccc1F)c1cc2c(s1)-c1sccc1N(C(=O)c1ccc(NC(=O)c3cccnc3N3CCC4(CCOCC4)CC3)cc1)CC2",
    "CC50 at 5 days": "> 13.5 µM"
  }
]

I'm hoping you can list CC50 at 5 days for every molecule here, please.
1. Cc1cnc(N2CC3(CCOCC3)C2)c(C(=O)Nc2ccc(C(=O)N3CCc4cc(C(=O)Nc5c(Cl)cccc5Cl)sc4-c4sccc43)cc2)c1
2. O=C(Nc1c(F)cccc1F)c1cc2c(s1)-c1sccc1N(C(=O)c1ccc(NC(=O)c3cc4sccc4nc3N3CC4(CCOCC4)C3)cc1F)CC2
3. Cc1cnc(N2CC3(CCOCC3)C2)c(C(=O)Nc2ccc(C(=O)N3CCc4cc(C(=O)Nc5c(F)cccc5F)sc4-c4sccc43)cc2)c1

## Result
1. > 13.2 µM
2. > 12.7 µM
3. > 13.8 µM

I'm hoping you can list CC50 at 5 days for every molecule here, please.
1. O=C(Nc1c(F)cccc1F)c1cc2c(s1)-c1sccc1N(C(=O)c1ccc(NC(=O)c3cc4ccccc4nc3N3CC4(CCOCC4)C3)cc1)CC2
2. Cc1cnc(N2CC3(CCOCC3)C2)c(C(=O)Nc2ccc(C(=O)N3CCc4cc(C(=O)Nc5c(F)cccc5Cl)sc4-c4sccc43)cc2)c1
3. Cc1ccc(C(=O)Nc2ccc(C(=O)N3CCc4cc(C(=O)Nc5c(F)cccc5F)sc4-c4sccc43)cc2)c(N2CC3(CCOCC3)C2)n1
4. Cc1cnc(N2CC3(COC3)C2)c(C(=O)Nc2ccc(C(=O)N3CCc4cc(C(=O)Nc5c(F)cccc5F)sc4-c4sccc43)cc2)c1
5. Cc1cccc(F)c1NC(=O)c1cc2c(s1)-c1sccc1N(C(=O)c1ccc(NC(=O)c3cc4c(nc3N3CC5(CCOCC5)C3)CCOC4)cc1)CC2
6. Cc1cnc(N2CC3(CCOCC3)C2)c(C(=O)Nc2ccc(C(=O)N3CCc4cc(C(=O)Nc5ccc(F)cc5F)sc4-c4sccc43)cc2)c1
7. Cc1cnc(N2CC3(CCOCC3)C2)c(C(=O)Nc2ccc(C(=O)N3CCc4cc(C(=O)Nc5ccccc5)sc4-c4sccc43)cc2)c1

## Result
["> 13.1 µM", "> 13.5 µM", "> 13.8 µM", "> 14.3 µM", "> 13.1 µM", "> 13.8 µM", "> 14.5 µM"]

---

Tested on: RSV B Washington strain
assay method text: RSV B induced CPE in HEp2 cells
Assay type: cell-based
reported conditions: human respiratory syncytial virus, HEp-2, at 1 μg/mL
Please go through the items and note down their inhibition at 1 µg/mL.
Numbers only, in %.

[
  {
    "molecule": "Cc1cnc(N2CC3(CCOCC3)C2)c(C(=O)Nc2ccc(C(=O)N3CCc4cc(C(=O)Nc5c(O)cccc5F)sc4-c4sccc43)cc2)c1 [Example 15]",
    "measurement unit": "%",
    "inhibition at 1 µg/mL": 90
  },
  {
    "molecule": "O=C(Nc1c(F)cccc1F)c1cc2c(s1)-c1sccc1N(C(=O)c1ccc(NC(=O)c3cccnc3N3CC4(CCOCC4)C3)cc1F)CC2 [Example 7]",
    "measurement unit": "%",
    "inhibition at 1 µg/mL": 82
  },
  {
    "molecule": "COc1ccc(C(=O)Nc2ccc(C(=O)N3CCc4cc(C(=O)Nc5c(F)cccc5F)sc4-c4sccc43)cc2)c(N2CC3(CCOCC3)C2)n1 [Example 22]",
    "measurement unit": "%",
    "inhibition at 1 µg/mL": 94
  }
]

I'm hoping you can list inhibition at 1 µg/mL for every molecule here, please.
1. O=C(Nc1c(F)cccc1F)c1cc2c(s1)-c1sccc1N(C(=O)c1ccc(NC(=O)c3cccnc3N3CCC4(CC3)COC4)cc1)CC2 [Example 29]
2. Cc1cnc(N2CC3(COC3)C2)c(C(=O)Nc2ccc(C(=O)N3CCc4cc(C(=O)Nc5c(F)cccc5F)sc4-c4sccc43)cc2)c1 [Example 32]
3. Cc1cnc(N2CCC3(CCOCC3)CC2)c(C(=O)Nc2ccc(C(=O)N3CCc4cc(C(=O)Nc5c(F)cccc5F)sc4-c4sccc43)cc2)c1 [Example 34]
4. Cc1cnc(N2CCC3(CC2)COC3)c(C(=O)Nc2ccc(C(=O)N3CCc4cc(C(=O)Nc5c(F)cccc5F)sc4-c4sccc43)cc2)c1 [Example 30]
5. Cc1cc(C(=O)Nc2ccc(C(=O)N3CCc4cc(C(=O)Nc5c(F)cccc5F)sc4-c4sccc43)c(F)c2)c(N2CC3(CCOCC3)C2)nc1C [Example 23]
6. Cc1cnc(N2CC3(CCOCC3)C2)c(C(=O)Nc2ccc(C(=O)N3CCc4cc(C(=O)Nc5ccc(F)cc5F)sc4-c4sccc43)cc2)c1 [Example 10]
7. Cc1cnc(N2CC3(CCOCC3)C2)c(C(=O)Nc2ccc(C(=O)N3CCc4cc(C(=O)Nc5c(F)cccc5Cl)sc4-c4sccc43)c(F)c2)c1 [Example 19]
8. O=C(Nc1c(F)cccc1F)c1cc2c(s1)-c1sccc1N(C(=O)c1ccc(NC(=O)c3cc4ccccc4nc3N3CC4(CCOCC4)C3)cc1)CC2 [Example 27]

## Result
1. 51
2. 90
3. 9
4. 100
5. 96
6. 100
7. 86
8. 93

I'm hoping you can list inhibition at 1 µg/mL for every molecule here, please.
1. Cc1cnc(N2CC3(CCOCC3)C2)c(C(=O)Nc2ccc(C(=O)N3CCc4cc(C(=O)Nc5ccccc5)sc4-c4sccc43)cc2)c1 [Example 8]
2. O=C(Nc1c(F)cccc1F)c1cc2c(s1)-c1sccc1N(C(=O)c1ccc(NC(=O)c3cccnc3N3CC4(COC4)C3)cc1)CC2 [Example 31]
3. O=C(Nc1c(F)cccc1F)c1cc2c(s1)-c1sccc1N(C(=O)c1ccc(NC(=O)c3cccnc3N3CC4(CCOCC4)C3)cc1)CC2 [Example 6]
4. Cc1cnc(N2CC3(CCOCC3)C2)c(C(=O)Nc2ccc(C(=O)N3CCc4cc(C(=O)Nc5c(Cl)cccc5Cl)sc4-c4sccc43)cc2)c1 [Example 13]

## Result
1. 97
2. 57
3. 95
4. 80

I'm hoping you can list inhibition at 1 µg/mL for every molecule here, please.
1. O=C(Nc1c(F)cccc1F)c1cc2c(s1)-c1sccc1N(C(=O)c1ccc(NC(=O)c3cccnc3N3CCC4(CCOCC4)CC3)cc1)CC2 [Example 33]
2. Cc1cnc(N2CC3(CCOCC3)C2)c(C(=O)Nc2ccc(C(=O)N3CCc4cc(C(=O)Nc5c(F)cccc5Cl)sc4-c4sccc43)cc2)c1 [Example 12]

## Result
[23, 97]

---

Tested on: RSV B Washington strain
assay method text: RSV B induced CPE in HEp2 cells
Type: cell-based
reported conditions: human respiratory syncytial virus, HEp-2, 144 h, 6 days
measurement label: IC50 (µM)
Give bare numbers, in µM.

Some solved cases for reference:
[
  {
    "compound": "Cc1cc(C(=O)Nc2ccc(C(=O)N3CCc4cc(C(=O)Nc5c(F)cccc5F)sc4-c4sccc43)cc2)c(N2CC3(CCOCC3)C2)nc1C [Example 4]",
    "measurement unit": "µM",
    "IC50": 0.018
  },
  {
    "compound": "Cc1cc(C(=O)Nc2ccc(C(=O)N3CCc4cc(C(=O)Nc5c(F)cccc5F)sc4-c4sccc43)c(F)c2)c(N2CC3(CCOCC3)C2)nc1C [Example 23]",
    "measurement unit": "µM",
    "IC50": 0.07
  }
]

Now look at this entry.
## Task Tell me measured IC50 for O=C(Nc1c(F)cccc1F)c1cc2c(s1)-c1sccc1N(C(=O)c1ccc(NC(=O)c3cc4c(nc3N3CC5(CCOCC5)C3)CCC4)cc1)CC2 [Example 2] please.
## Result 0.0087
